Tested on: Trypanosoma brucei brucei S427 29-13 procyclic trypomastigotes
assay-name: In vitro drug sensitivity assay, T. brucei procyclics (72 h, resazurin)
Type: cell-based
quantity-measured: EC50 (µM)
Give bare numbers, in µM.

molecule: O=[N+]([O-])c1cn2c(n1)OC[C@@H](OCc1ccc(OC(F)(F)F)cc1)C2 [(S)-PA-824, reference compound]
EC50 [µM]: 36.5

Consider the additional molecule presented here.
For record O=[N+]([O-])c1cn2c(n1)OC[C@H](OCc1ccc(OC(F)(F)F)cc1)C2 [(R)-PA-824] the listed EC50 is 25

---

Test system: promastigotes of the LdBOB strain of L. donovani
assay-name: Drug combination studies (fixed-ratio isobologram, 72 h)
Type: cell-based, Leishmania donovani
test-parameters: Leishmania donovani, Fig. 3B experiment, compound alone, duplicate cultures; read-out: Absolute EC50
quantity-measured: EC50
Please format your answer as a value with the unit trailing.

molecule: O=[N+]([O-])c1cn2c(n1)OC[C@H](OCc1ccc(OC(F)(F)F)cc1)C2 [(R)-PA-824]
quantity-measured: EC50
result: 100 nM

Consider the additional molecule presented here.
For record O=[N+]([O-])c1cn2c(n1)OC[C@@H](OCc1ccc(OC(F)(F)F)cc1)C2 [(S)-PA-824, reference compound] the listed EC50 is 740 nM
